Listed here are binders together with their documented Ki.
# TARGET: T1, B7-H3 expressed on the surface of cells (MCF7 cells; B7-H3-expressing cancer cells) (Homo sapiens (Human), UniProt Q5ZPR3 29-534)
# T1 construct: Endogenous B7-H3 on MCF7 cells (DELFIA) and on an unnamed cancer cell line (flow cytometry); also called CD276
# T1 sequence: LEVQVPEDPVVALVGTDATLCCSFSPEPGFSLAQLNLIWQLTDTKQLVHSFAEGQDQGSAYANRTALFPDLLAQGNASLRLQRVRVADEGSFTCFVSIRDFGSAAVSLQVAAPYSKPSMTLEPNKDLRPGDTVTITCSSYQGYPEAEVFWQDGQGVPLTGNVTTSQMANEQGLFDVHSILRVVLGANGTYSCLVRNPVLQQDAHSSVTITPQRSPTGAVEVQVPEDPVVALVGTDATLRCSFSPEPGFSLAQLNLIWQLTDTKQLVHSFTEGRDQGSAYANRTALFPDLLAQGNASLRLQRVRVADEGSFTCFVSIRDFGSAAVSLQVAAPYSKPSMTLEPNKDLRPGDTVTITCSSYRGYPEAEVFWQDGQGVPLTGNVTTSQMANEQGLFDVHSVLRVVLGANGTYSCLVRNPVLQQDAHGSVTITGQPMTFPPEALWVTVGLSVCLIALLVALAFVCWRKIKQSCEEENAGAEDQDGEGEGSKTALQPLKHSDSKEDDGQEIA
# METHOD DESCRIPTION: DELFIA competition on cells expressing B7-H3 (as in Example 14); competitor: europium-chelate miniprotein tracer
Primed or numbered codes have the meaning given here. The star is where a group is joined. Biotin = O=C1N[C@H]2[C@H](CS[C@H]2CCCCC(=O)*)N1; PEG4′ = not defined here

>>> result("Compound C255 (designed binder, (Kme3) at 24; N-terminal Biotin-PEG4; C-terminal NH2; disulfide bridges between cysteine pairs) CAKEKIAALSEIIWLPCLTYAQIXAFIAALNDDPCQSSELLSEAKELNDSQCP")
"8.75 nM"
>>> result("{Biotin-PEG4′}-CAREKIAALSEIIWLPCLTYAQIQAFIAALNDDPCQSSEILSEAKELCS-NH2 (designed binder, disulfide (positions not given here)) [Compound C290]")
"13.8 nM"
>>> result("Compound C253 (designed binder, (Kme2) at 24; N-terminal Biotin-PEG4; C-terminal NH2; disulfide bridges between cysteine pairs) CAKEKIAALSEIIWLPCLTYAQIXAFIAALNDDPCQSSELLSEAKELNDSQCP")
"5.36 nM"
>>> result("{Biotin-PEG4′}-CAREKIAALSEIIWLPCLTYAQIVAFIAALNDDPCQSSEILSEAKELCS-NH2 (designed binder, disulfide (positions not given here)) [Compound C291]")
"7.7 nM"
>>> result("CAREKIAALSEIIWLPCLTYAQIXAFIAALNDDPCQSSEILSEAKELCS (designed binder, (Kme2) at 24; N-terminal Biotin-PEG4; C-terminal NH2; two disulfide bridges) [Compound C275]")
"1.42 nM"

# evaluate next
For the binder Compound C245 (designed binder, (homo-leucine) at 24; N-terminal Biotin-PEG4; C-terminal NH2; disulfide bridges between cysteine pairs (Cys1-Cys35 and Cys17-Cys52 named for SEQ ID NO: 213)) CAKEKIAALSEIIWLPCLTYAQIXAFIAALNDDPCQSSELLSEAKELNDSQCP , what Ki is on record?
2.8 nM

All values here come from patent US20260048158A1.
